pIC50: −log10 of the molar value.
Literature roundup of 72 kDa type IV collagenase (Homo sapiens) data, read-out pIC50.
readout: pIC50

Completed entries (count: 4):
[
  {
    "molecule": "CNC(=O)[C@@H]1Cc2ccc(cc2)OCCCCC[C@H](C(=O)NO)[C@@H](CC(C)C)C(=O)N1",
    "pIC50": 8.64
  },
  {
    "molecule": "O=C(O[C@H]1CCOC1)N1CCC(CS(=O)(=O)N2CCN(c3ccccc3)CC2)(C(=O)NO)CC1",
    "pIC50": 7.89
  },
  {
    "molecule": "O=C(NO)C1c2ccc(OCc3ccccc3)cc2CCN1S(=O)(=O)c1cc(Cl)ccc1Cl (stereo not drawn)",
    "pIC50": 5.96
  },
  {
    "molecule": "N#Cc1ccc(-c2ccc(S(=O)(=O)C(CCN3C(=O)c4ccccc4C3=O)C(=O)O)cc2)cc1 (stereo not drawn)",
    "pIC50": 8.52
  }
]

[1] O=C(Oc1ccsc1)c1cccc(=O)[nH]1
[2] Cc1cc(COc2ccc(S(=O)(=O)N(C)C3(C(=O)NO)CN(C(=O)C(C)C)C3)cc2)c2ccccc2n1
INPUT: Hi, I'm comparing two records. Which one has the lower pIC50, 1 or 2 ? Your answer should be the label of the entry you select.
OUTPUT: 1

[A] O=C(OC/C=C/c1ccccc1)c1cccc(=O)[nH]1
[B] CCOc1cccc(-c2ccc(C3=CCN(S(=O)(=O)CC(=O)NO)CC3)cc2C)c1
INPUT: Just curious, which one has the larger pIC50 reading, A or B ? Please identify the chosen entry by its label.
OUTPUT: B
